Each item that follows carries a reported melting point.

[[record]]
chemical_string = "COC(=O)c1c(SC)cc(-c2ccc3ccc4cccc5ccc2c3c45)c2c1-c1cn(-c3ccccc3)nc1CC2"
measure = "melting point"
meas_value = "174 to 176 °C"

[[record]]
chemical_string = "COC(=O)c1c(S(C)(=O)=O)cc(-c2ccc(C)cc2)c2c1-c1cn(-c3ccccc3)nc1CC2"
measure = "melting point"
meas_value = "228 to 230 °C"

[[record]]
chemical_string = "COC(=O)c1c(SC)cc(-c2ccc(F)cc2)c2c1-c1cn(-c3ccccc3)nc1CC2"
measure = "melting point"
meas_value = "182 to 184 °C"


Incoming: Consider the compound COC(=O)c1c(SC)cc(-c2ccccc2)c2c1-c1cn(-c3ccccc3)nc1CC2 and give its measured melting point.
Outgoing: 173 to 175 °C

* * *

# Target system: human recombinant PTP1B enzyme (Homo sapiens, UniProt P18031)
# Construct: purchased Enzo Life Sciences, USA BML-AK 822
# Sequence (P18031 1-322 limits assumed): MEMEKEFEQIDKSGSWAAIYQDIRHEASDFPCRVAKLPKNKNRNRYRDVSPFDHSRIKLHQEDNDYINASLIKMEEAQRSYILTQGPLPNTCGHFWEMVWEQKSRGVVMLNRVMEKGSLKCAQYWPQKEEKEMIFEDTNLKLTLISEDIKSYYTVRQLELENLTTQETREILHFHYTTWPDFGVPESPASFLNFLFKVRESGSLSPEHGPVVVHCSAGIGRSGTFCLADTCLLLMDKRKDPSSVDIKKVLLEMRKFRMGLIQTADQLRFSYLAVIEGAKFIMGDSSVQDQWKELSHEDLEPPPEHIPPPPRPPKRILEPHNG
# Procedure text: Protein tyrosine phosphatase-1B assay (colorimetric kit BML-AK 822)
# Assay type: biochemical
# Experimental setup: Table 5; evaluated at 10 μM concentration; read-out: % Inhibition (PTP-1B)
# Procedure: Assay was done according to the Kit manufacturers protocol, in brief the reaction was carried out in 96 well flat bottomed microtiter plate by the addition of assay buffer, solution of test compounds and diluted PTP1B enzyme. Enzyme reaction was initiated by addition of 50 μl of warmed 2× substrate then incubated the plate at 30° C. for 30 min. After incubation for 30 min. […] Absorbance was recorded at 620 nm. on a microplate reader.
Measure: inhibition at 10 µM (%)
Quick note: give the figure in %, leave out the unit.

[[record]]
molecule = "Cc1ccc(C(=O)Nc2ccc(S(=O)(=O)O)c3cc(S(=O)(=O)O)cc(S(=O)(=O)O)c23)cc1NC(=O)c1cccc(NC(=O)Nc2cccc(C(=O)Nc3cc(C(=O)Nc4ccc(S(=O)(=O)O)c5cc(S(=O)(=O)O)cc(S(=O)(=O)O)c45)ccc3C)c2)c1 [Standard Suramin, suramin, reference compound]"
meas_value = 60.2

[[record]]
molecule = "COC(=O)c1c(SC)cc(-c2ccc(OC)cc2)c2c1-c1cn(-c3ccccc3)nc1CC2"
meas_value = 8.43


Next molecule, inhibition at 10 µM to be filled in.
Incoming: Consider the molecule COC(=O)c1c(S(C)(=O)=O)cc(-c2cccc3ccccc23)c2c1-c1cn(-c3ccccc3)nc1CC2 and give its measured inhibition at 10 µM.
Outgoing: 18.8

* * *

# Target system: human recombinant PTP1B enzyme (Homo sapiens, UniProt P18031)
# Procedure text: Protein tyrosine phosphatase-1B assay (colorimetric kit BML-AK 822)
# Experimental setup: from % inhibition at 5 concentrations 0.3-10 μM
# Protocol: Assay was done according to the Kit manufacturers protocol, in brief the reaction was carried out in 96 well flat bottomed microtiter plate by the addition of assay buffer, solution of test compounds and diluted PTP1B enzyme. Enzyme reaction was initiated by addition of 50 μl of warmed 2× substrate then incubated the plate at 30° C. for 30 min. After incubation for 30 min. […] Absorbance was recorded at 620 nm. on a microplate reader.
Each item that follows carries a reported IC50.
Quick note: give the figure in µM, leave out the unit.

[[record]]
chemical_string = "COC(=O)c1c(SC)cc(-c2ccc(C)cc2)c2c1-c1cn(-c3ccccc3)nc1CC2"
target_system = "human recombinant PTP1B enzyme (Homo sapiens, UniProt P18031)"
unit_annotation = "µM"
meas_value = 7.12


Next compound, IC50 to be filled in.
Incoming: Consider the compound COC(=O)c1c(SC)cc(-c2cccc3ccccc23)c2c1-c1cn(-c3ccccc3)nc1CC2 and give its measured IC50.
Outgoing: 8.12

Where these numbers come from: patent US9096539B2
